The values you see were collected from the supplement of paper PMC10567573.

assay: protein stability index of a GFP-peptide fusion (GPS, HEK-293T) (PSI 1-6); higher = more stable; conditions: treatment: DMSO; c terminus: a fixed tail appended;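 note: 24-mer peptide tiles fused after GFP, lentivirally expressed, FACS-sorted into six equal bins by GFP/DsRed ratio, decoded by Illumina sequencing, PSI is the read-weighted mean bin number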
Each entry below lists one item and its recorded protein stability index value.
No unit in the answer, only the number.

See these solved cases before continuing.
- sequence: "DSFVVQYEDTNGQPQALLVDGDQS [TNXB]"
  protein stability index: 5
- sequence: "DYSRPLHISTFINELDSGFRLLNL [TSN]"
  protein stability index: 2.11
- sequence: "PEGQKVLFVTFLLIYMVTIMGNLL [OR4A15]"
  protein stability index: 3.06
- sequence: "TWKSGKQTMLSHYRPFYVNKGNGI [TRIM29]"
  protein stability index: 2.36
- sequence: "SDMDRNKTILGNAHDNSEELERAR [ANKRD44]"
  protein stability index: 5.58
- sequence: "DTGVFAVVNSHSLSLLGKLTISAA [SLC22A15]"
  protein stability index: 2.5

Next up:
// Input: QTEKLDTNITEVDAASVYTLPAGA [CASP6] . Output its protein stability index only. 5.02

---

Known protein stability index of a selection of sequences
test: protein stability index of a GFP-peptide fusion (GPS, HEK-293T) (PSI 1-6); higher = more stable; conditions: treatment: MLN4924 1 uM, 8 h; c terminus: a fixed tail appended
No unit in the answer, please; the number alone is enough.

Name the recorded protein stability index of the sequence listed here: GENAGSLTHIEAQNKIRACGERLS [PDLIM7] 4.62

---

experiment: protein stability index of a GFP-peptide fusion (GPS, HEK-293T) (PSI 1-6); higher = more stable; conditions: treatment: DMSO; c terminus: a fixed tail appended
Tick Y if protein stability index is 3 or greater. Tick N if protein stability index is less than 3.

Reference set, count: 8
- sequence: "YNWEEERATNHLDQVPSMQDGSES [SPAG8]"
  assigned_category: "Y"
- sequence: "YKCAECGKSFCHSTHLTVHRRIHT [ZNF8]"
  assigned_category: "Y"
- sequence: "PELNNNQYNRSSNSNGGNLNSPPG [CDC14A]"
  assigned_category: "Y"
- sequence: "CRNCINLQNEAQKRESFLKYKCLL [IQUB]"
  assigned_category: "N"
- sequence: "TLRTCYAANPRPDALMKEQLVEMT [ISL2]"
  assigned_category: "Y"
- sequence: "VTYSLLKRLKERSLDTLLEAVESR [SMAD6]"
  assigned_category: "N"
- sequence: "DFGFAILGFAYAKEDKIMLDDRKN [MIA2]"
  assigned_category: "N"
- sequence: "TNEKALEAVFGKYGRIVEVLLMKD [RBMX]"
  assigned_category: "N"

# check: protein stability index of QMKQKVQSLYQEVFGRLRDENGRP [NFE2L1] is greater than or equal to 3 N

Does the reported protein stability index for DPGVQELEALIDTIQKQLKDHSCK [EFHC1] fall at or above the 3 mark? Y

Reported protein stability index at or above 3? VQVPEAWEELLTMKVEAKSHLQWQ [ZSCAN9] N

protein stability index >= 3 for NDIRIFLEKVLEENAQKKRFNQVL [VPS39] ? N

---

experiment: protein stability index of a GFP-peptide fusion (GPS, HEK-293T) (PSI 1-6); higher = more stable; conditions: treatment: DMSO; c terminus: native
readout_kind: protein stability index
Respond using a number only.

- sequence: "EVLAQPQGALAPPNCESDSKTGV [DNAAF3]"
  protein stability index: 5.34
- sequence: "KVLNMWCCCFFKRRKRKTIQRHK [CSNK1G3]"
  protein stability index: 2.56
- sequence: "NSPSSPSSSAASSSSPSSSSAVV [RHOBTB2]"
  protein stability index: 5.31
- sequence: "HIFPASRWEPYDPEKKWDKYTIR [FAM50A]"
  protein stability index: 2.82
- sequence: "SIQVRRKPQHGVCSQLLGNYRCL [SERPINB9P1]"
  protein stability index: 2.69

Read the next record carefully.
Supply measured protein stability index of EEFIEEEDQEEEESTEGKEEGHQ [TRIM63] in your reply. 5.56
